Values compiled from ChEMBL document CHEMBL1153565.

Catalogue of molecules with associated logP
assay: Partition coefficient, log P of the compound; assay type: physicochemical; conditions: octanol/water
measurement.name: logP

OCCCCCCNc1ccc2nc(-c3ccc(F)cc3)c(-c3ccncc3)n2c1 = 3.2
OCCNc1ccc2nc(-c3ccc(F)cc3)c(-c3ccncc3)n2c1 = 1.75
OCCCCNc1ccc2nc(-c3ccc(F)cc3)c(-c3ccncc3)n2c1 = 2.3
